test system: Methicillin Resistant Staphylococcus aureus strain USA 300, NRS384; assay: Minimum inhibitory concentration, broth micro-dilution (CLSI), S. aureus; type: cell-based; settings: Staphylococcus aureus, MRSA / NRS 384 / USA300, 22 h, MRSA USA 300 NRS384; 35° C., 22 hours; read-out: MIC (μg/mL) S. aureus
// reported MIC for each item listed

{"Smiles Str": "CCCCCCCCc1cc(C)c(C(=O)N[C@@H](CCN)C(=O)N(C)[C@@H]2C(=O)N[C@@H](C)C(=O)N[C@H](C(=O)NCC#N)Cc3ccc(OCCN)c(c3)-c3cc2ccc3OCCN)s1", "Target Desc": "Methicillin Resistant Staphylococcus aureus strain USA 300, NRS384", "MIC [µg/mL]": 0.063}
{"Smiles Str": "CCCCCCCCc1ccc(C(=O)N[C@@H](CCN)C(=O)N(C)[C@@H]2C(=O)N[C@@H](C)C(=O)N[C@H](C(=O)NCC#N)Cc3ccc(OCCN)c(c3)-c3cc2ccc3OCCN)c(C)c1", "Target Desc": "Methicillin Resistant Staphylococcus aureus strain USA 300, NRS384", "MIC [µg/mL]": 0.047}
{"Smiles Str": "CCCCc1ccc(C(=O)N[C@@H](CCCCN)CC(=O)N(C)[C@@H]2C(=O)N[C@@H](C)C(=O)N[C@H](C(=O)NCC#N)Cc3ccc(OCCN)c(c3)-c3cc2ccc3OCCN)c(C)c1", "Target Desc": "Methicillin Resistant Staphylococcus aureus strain USA 300, NRS384", "MIC [µg/mL]": 3}
{"Smiles Str": "CCCCc1ccc(C(=O)N[C@@H](CCN)C(=O)N(C)[C@@H]2C(=O)N[C@@H](C)C(=O)N[C@H](C(=O)NCC#N)Cc3ccc(OCCN)c(c3)-c3cc2ccc3OCCN)c(C)c1", "Target Desc": "Methicillin Resistant Staphylococcus aureus strain USA 300, NRS384", "MIC [µg/mL]": 0.25}
{"Smiles Str": "CCCCCCCCCCNCCS(=O)(=O)N[C@@H](CCCN)C(=O)N(C)[C@@H]1C(=O)N[C@@H](C)C(=O)N[C@H](C(=O)NCC#N)Cc2ccc(OCCN)c(c2)-c2cc1ccc2OCCN", "Target Desc": "Methicillin Resistant Staphylococcus aureus strain USA 300, NRS384", "MIC [µg/mL]": 0.016}
{"Smiles Str": "Cc1nc(-c2ccc(CC(C)C)cc2)sc1C(=O)N[C@@H](CCN)C(=O)N(C)[C@@H]1C(=O)N[C@@H](C)C(=O)N[C@H](C(=O)NCC#N)Cc2ccc(OCCN)c(c2)-c2cc1ccc2OCCN", "Target Desc": "Methicillin Resistant Staphylococcus aureus strain USA 300, NRS384", "MIC [µg/mL]": 0.063}
{"Smiles Str": "CCCCc1ccc(C(=O)N[C@@H](CCCN)C(=O)N(C)[C@@H]2C(=O)N[C@@H](C)C(=O)N[C@H](C(=O)NCC#N)Cc3ccc(OCCN)c(c3)-c3cc2ccc3OCCN)cc1", "Target Desc": "Methicillin Resistant Staphylococcus aureus strain USA 300, NRS384", "MIC [µg/mL]": 0.5}
{"Smiles Str": "CCCCCCc1ccc(-c2ncc(C(=O)N[C@@H](CCN)C(=O)N(C)[C@@H]3C(=O)N[C@@H](C)C(=O)N[C@H](C(=O)NCC#N)Cc4ccc(OCCN)c(c4)-c4cc3ccc4OCCN)c(C)n2)cc1", "Target Desc": "Methicillin Resistant Staphylococcus aureus strain USA 300, NRS384", "MIC [µg/mL]": 0.063}
{"Smiles Str": "CCCCCCCCCCCCCC(=O)N[C@@H](CCN)C(=O)N(C)[C@@H]1C(=O)N[C@@H](C)C(=O)N[C@H](C(=O)NCC#N)Cc2ccc(OCC(=O)OC(C)(C)C)c(c2)-c2cc1ccc2OCCN", "Target Desc": "Methicillin Resistant Staphylococcus aureus strain USA 300, NRS384", "MIC [µg/mL]": 1}
{"Smiles Str": "CCCCCCCOc1ccc(C(=O)N[C@@H](CCCN)C(=O)N(C)[C@@H]2C(=O)N[C@@H](C)C(=O)N[C@H](C(=O)NCC#N)Cc3ccc(OCCN)c(c3)-c3cc2ccc3OCCN)c(C)c1", "Target Desc": "Methicillin Resistant Staphylococcus aureus strain USA 300, NRS384", "MIC [µg/mL]": 0.023}

----------
biological target: SpsB (Staphylococcus aureus signal peptidase) (Staphylococcus aureus, UniProt P0A070); construct: This assay uses a suspension of Staphylococcus aureus cells as a source of SpsB instead of recombinant SpsB protein; endogenous in cells; host or cells: S. aureus, USA300 background, overexpressing SpsB (whole-cell suspension from frozen pellets); experiment: cell-based; type: biochemical; settings: SpsB IC50, whole-cell S. aureus (USA300 background, overexpressing SpsB) as SpsB source; fluorogenic peptide substrate, kinetic read 30 min
Sequence (P0A070 whole entry): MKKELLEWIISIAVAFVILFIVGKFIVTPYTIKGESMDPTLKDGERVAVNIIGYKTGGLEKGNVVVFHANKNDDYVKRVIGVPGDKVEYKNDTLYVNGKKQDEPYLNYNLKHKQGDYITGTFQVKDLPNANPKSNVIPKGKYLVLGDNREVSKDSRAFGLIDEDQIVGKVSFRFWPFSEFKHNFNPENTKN
pIC50: −log10 of the molar value.
Label scheme for pIC50: lower than 9 is not fulfilled, 9 and above is fulfilled.

{"Smiles Str": "CCCCCCCCCC(=O)NCC(=O)N[C@@H](CCN)C(=O)N(C)[C@@H]1C(=O)N[C@@H](C)C(=O)N[C@H](C(=O)NCC#N)Cc2ccc(OCCN)c(c2)-c2cc1ccc2OCCN", "Category Label": "fulfilled"}
{"Smiles Str": "CCCCCCCCCCN[C@@H](CO)C(=O)N(C)[C@@H]1C(=O)N[C@@H](C)C(=O)N[C@H](C(=O)NCC#N)Cc2ccc(OCCN)c(c2)-c2cc1ccc2OCCN", "Category Label": "not fulfilled"}

----------
target: SpsB (Staphylococcus aureus signal peptidase) (Staphylococcus aureus); construct: This assay uses a suspension of Staphylococcus aureus cells as a source of SpsB instead of recombinant SpsB protein; endogenous in cells; host or cells: S. aureus, USA300 background, overexpressing SpsB (whole-cell suspension from frozen pellets); test: cell-based; format: biochemical; details: SpsB IC50, whole-cell S. aureus (USA300 background, overexpressing SpsB) as SpsB source; fluorogenic peptide substrate, kinetic read 30 min
// returns f unless IC50 is strictly below 1 nM, in which case t

{"Smiles Str": "CCCCCCCOc1cc(Cl)c(C(=O)N[C@@H](CCN)C(=O)N(C)[C@@H]2C(=O)N[C@@H](C)C(=O)N[C@H](C(=O)NCC#N)Cc3ccc(OCCN)c(c3)-c3cc2ccc3OCCN)c(Cl)c1", "Category Label": "f"}
{"Smiles Str": "Cc1nc(-c2ccc(C(C)C)cc2)ncc1C(=O)N[C@@H](CCN)C(=O)N(C)[C@@H]1C(=O)N[C@@H](C)C(=O)N[C@H](C(=O)NCC#N)Cc2ccc(OCCN)c(c2)-c2cc1ccc2OCCN", "Category Label": "t"}
{"Smiles Str": "CCCCc1ccc(-c2ccc(C(=O)N[C@@H](CCCN)C(=O)N(C)[C@@H]3C(=O)N[C@@H](C)C(=O)N[C@H](C(=O)NCC#N)Cc4ccc(OCCN)c(c4)-c4cc3ccc4OCCN)cc2)cc1", "Category Label": "t"}
{"Smiles Str": "CCCCCCCCCCCC(=O)N[C@@H](CCCO)C(=O)N(C)[C@@H]1C(=O)N[C@@H](C)C(=O)N[C@H](C(=O)NCC#N)Cc2ccc(OCCN)c(c2)-c2cc1ccc2OCCN", "Category Label": "f"}

----------
test system: Methicillin Resistant Staphylococcus aureus strain USA 300, NRS384; assay: Minimum inhibitory concentration, broth micro-dilution (CLSI), S. aureus; type: cell-based; conditions: Staphylococcus aureus, MRSA / NRS 384 / USA300, 22 h, MRSA USA 300 NRS384; 35° C., 22 hours; read-out: MIC (μg/mL) S. aureus

{"Molecule": "CCCCCCCCc1ccc(C(=O)N[C@@H](CCN)C(=O)N(C)[C@@H]2C(=O)N[C@@H](C)C(=O)N[C@H](C(=O)NCC#N)Cc3ccc(OCCN)c(c3)-c3cc2ccc3OCCN)c(O)c1", "Units Of Measure": "µg/mL", "MIC": 0.063}
{"Molecule": "CCCCCCc1ccc(C(=O)N[C@@H](CCN)C(=O)N(C)[C@@H]2C(=O)N[C@@H](C)C(=O)N[C@H](C(=O)NCC#N)Cc3ccc(OCCN)c(c3)-c3cc2ccc3OCCN)cn1", "Units Of Measure": "µg/mL", "MIC": 0.19}
{"Molecule": "CCCCCCCCCCCCCC(=O)N[C@@H](CCN)C(=O)N(C)[C@@H]1C(=O)N[C@@H](C)C(=O)N[C@H](C(=O)NCC#N)Cc2ccc(OCCO)c(c2)-c2cc1ccc2OCCO", "Units Of Measure": "µg/mL", "MIC": 0.25}
{"Molecule": "CCCCc1ccc(C(=O)N[C@@H](CCN)C(=O)N(C)[C@@H]2C(=O)N[C@@H](C)C(=O)N[C@H](C(=O)NCC#N)Cc3ccc(OCCN)c(c3)-c3cc2ccc3OCCN)cn1", "Units Of Measure": "µg/mL", "MIC": 1.5}
{"Molecule": "CCCCCCCCCCNCC(CO)C(=O)N(C)[C@@H]1C(=O)N[C@@H](C)C(=O)N[C@H](C(=O)NCC#N)Cc2ccc(OCCN)c(c2)-c2cc1ccc2OCCN (some centres unmarked)", "Units Of Measure": "µg/mL", "MIC": 1.5}
